- target-entity: CYP2C8 (Homo sapiens, UniProt P10632)
- Sequence (P10632 whole entry): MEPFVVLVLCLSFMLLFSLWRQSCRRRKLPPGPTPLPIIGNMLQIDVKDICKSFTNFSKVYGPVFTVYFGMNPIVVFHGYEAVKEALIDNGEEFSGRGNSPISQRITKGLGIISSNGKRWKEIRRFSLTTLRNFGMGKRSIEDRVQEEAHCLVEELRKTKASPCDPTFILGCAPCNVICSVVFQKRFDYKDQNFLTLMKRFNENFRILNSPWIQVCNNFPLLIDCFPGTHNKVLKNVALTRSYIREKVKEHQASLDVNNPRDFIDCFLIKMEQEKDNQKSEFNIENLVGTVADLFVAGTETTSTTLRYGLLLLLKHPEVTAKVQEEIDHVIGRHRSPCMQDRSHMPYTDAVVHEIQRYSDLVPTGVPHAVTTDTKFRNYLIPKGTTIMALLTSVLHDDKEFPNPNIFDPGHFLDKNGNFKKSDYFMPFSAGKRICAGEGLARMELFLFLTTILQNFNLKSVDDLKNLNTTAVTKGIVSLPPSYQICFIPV
- experimental-details: biochemical
value-type: Ki (nM)
Quick note: give the figure in nM, leave out the unit.

Q: Would you kindly share the measured Ki for O=c1c(O)c(-c2cc(O)c(O)c(O)c2)oc2cc(O)cc(O)c12 ?
A: 1700

---

- Assay type: in vivo, Wistar rats
- condition-parameters: male, Wistar, rat, plasma, po, 60 mg/kg, Cmax, rats, amodiaquine 60 mg/kg oral alone (Group-I), mean ± SEM (n = 5)
value-type: Cmax (ng/mL)
// return numeric value only (unit: ng/mL, not printed)

Q: Value lookup for Cmax; key = CCN(CC)Cc1cc(Nc2ccnc3cc(Cl)ccc23)ccc1O
A: 1030
